Test system: NHBE cells
Assay: Biolog metabolic array: substrate use by NHBE cells with or without CA09 infection
Type: cell-based, human
Settings: Virus: CA09-infected NHBE cells, MOI 1; Biolog PMM2; 6 hr
Each entry below carries its reported 590 nm absorbance normalized to zero hour (substrate use), 6 hr.
Just the number.

COC(=O)CCC(=O)O [Mono Methyl Succinate] = 2.33
CCCCCC(=O)O [Hexanoic Acid] = 0.37
OC[C@H]1OC(O)[C@@H](O)[C@@H](O)[C@@H]1O (stereo partly drawn) [D-Mannose] = 4.57
O[C@H]1[C@H](O)[C@@H](O)[C@H](O)[C@@H](O)[C@H]1O [m-Inositol] = 0.99
CO[C@@H]1O[C@H](CO)[C@H](O)[C@H](O)[C@H]1O [b-Methyl-D-Galactoside] = 1.45
CC(O)C(=O)O [L-Lactic Acid (DL)] = 2.68
OC[C@@H](O)[C@@H](O)[C@H](O)[C@H](O)CO [D-Mannitol] = 0.42
O=C[C@@H](O)[C@H](O)[C@H](O)CO [D-Arabinose] = 1.29

## Task Check the records and state 590 nm absorbance normalized to zero hour (substrate use), 6 hr for OC[C@H]1O[C@@H](O[C@H]2[C@H](O)[C@@H](O)[C@H](O)O[C@@H]2CO)[C@H](O)[C@@H](O)[C@@H]1O [D-Cellobiose]
## Result 3.00

## Task Report 590 nm absorbance normalized to zero hour (substrate use), 6 hr, nothing else, for this compound: NCCCC(=O)O [g-Amino Butyric Acid]
## Result 3.56

* * *

System: NHBE cells
Experiment: Biolog metabolic array: substrate use by NHBE cells with or without CA09 infection
Type: cell-based, human
Conditions: Virus (CA09-infected, MOI 1) NHBE cells, 8 hr
Measured 590 nm absorbance normalized to zero hour (substrate use), 8 hr values are reported for all entries that follow.
Respond using a number only.

OC[C@H]1O[C@@H](O[C@@H]2[C@@H](CO)OC(O)(CO)[C@H]2O)[C@H](O)[C@@H](O)[C@H]1O (mixture of isomers) = 3.70
O=C[C@H](O)[C@@H](O)[C@@H](O)[C@H](O)CO = 2.29
COC(=O)C(C)=O [Methyl Pyruvate] = 3.03

## Task Lab note: NHBE cells assay, enter 590 nm absorbance normalized to zero hour (substrate use), 8 hr for CO[C@@H]1O[C@H](CO)[C@H](O)[C@H](O)[C@H]1O [b-Methyl-D-Galactoside] here
## Result 1.60

* * *

System: NHBE cells
Assay: Biolog metabolic array: substrate use by NHBE cells with or without CA09 infection
Type: cell-based, human
Conditions: Virus: CA09-infected NHBE cells, MOI 1; Biolog PMM2; 9 hr
MEASURED_ENDPOINT: 590 nm absorbance normalized to zero hour (substrate use), 9 hr

Reference set, count: 2
O=C(CO)[C@@H](O)[C@H](O)[C@H](O)CO = 1.43
CC(=O)C(C)O (stereo not drawn) [3-Hydroxy 2-Butanone] = 2.18

## Task Specify measured 590 nm absorbance normalized to zero hour (substrate use), 9 hr for CCCCCC(=O)O .
## Result 0.36

## Task // Input: O=C(O)C[C@@H](O)C(=O)O . Output its 590 nm absorbance normalized to zero hour (substrate use), 9 hr only.
## Result 1.95

## Task Name the recorded 590 nm absorbance normalized to zero hour (substrate use), 9 hr of the item Cc1cn([C@H]2C[C@H](O)[C@@H](CO)O2)c(=O)[nH]c1=O in your answer.
## Result 2.28

## Task Return the recorded 590 nm absorbance normalized to zero hour (substrate use), 9 hr value; entry: O=C(O)C[C@H](O)C(=O)O
## Result 1.72

## Task Please report 590 nm absorbance normalized to zero hour (substrate use), 9 hr for the following compound: CC(=O)C(=O)O
## Result 0.65
